biological target: FGFR1-GST (Homo sapiens); construct: GST; made in house; assay: FGFR-1 TR-FRET biochemical assay; details: bounds given in nM
Sequence (P11362 22-822): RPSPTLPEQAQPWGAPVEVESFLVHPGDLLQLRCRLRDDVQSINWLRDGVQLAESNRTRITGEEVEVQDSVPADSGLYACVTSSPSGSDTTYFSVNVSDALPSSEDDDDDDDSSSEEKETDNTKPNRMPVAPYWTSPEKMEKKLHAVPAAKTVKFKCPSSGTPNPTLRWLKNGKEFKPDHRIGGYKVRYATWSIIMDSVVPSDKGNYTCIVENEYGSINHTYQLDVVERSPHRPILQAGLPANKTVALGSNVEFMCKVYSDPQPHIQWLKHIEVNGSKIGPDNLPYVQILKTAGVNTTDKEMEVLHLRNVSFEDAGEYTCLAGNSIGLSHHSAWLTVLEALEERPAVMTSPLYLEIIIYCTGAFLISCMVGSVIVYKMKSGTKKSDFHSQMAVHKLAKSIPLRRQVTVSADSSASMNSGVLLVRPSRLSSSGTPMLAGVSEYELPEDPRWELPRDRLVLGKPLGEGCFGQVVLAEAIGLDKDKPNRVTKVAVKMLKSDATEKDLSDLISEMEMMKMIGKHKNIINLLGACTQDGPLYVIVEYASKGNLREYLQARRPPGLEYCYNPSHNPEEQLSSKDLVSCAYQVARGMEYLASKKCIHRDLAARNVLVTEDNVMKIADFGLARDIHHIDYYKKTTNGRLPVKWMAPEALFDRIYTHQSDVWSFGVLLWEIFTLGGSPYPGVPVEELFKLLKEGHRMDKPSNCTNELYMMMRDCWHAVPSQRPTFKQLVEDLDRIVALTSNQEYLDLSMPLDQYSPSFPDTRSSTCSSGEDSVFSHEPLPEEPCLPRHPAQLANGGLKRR
QUANTITY_KIND: IC50

| MOLECULE | IC50 |
| --- | --- |
| Cc1ccc(F)c(NC(=O)Nc2ccc(-c3c(Cl)c(CN4CCOCC4)n4ncnc(N)c34)cc2F)c1 | < 10 nM |
| N#Cc1c(C(=O)O)c(-c2ccc(NC(=O)Nc3cc(C(F)(F)F)ccn3)cc2)c2c(N)ncnn12 | > 100 nM |
| CN1CCN(Cc2c(-c3cnco3)c(-c3ccc(NC(=O)Nc4cc(C(F)(F)F)ccc4F)cc3)c3c(N)ncnn23)CC1 | < 10 nM |
| CC(=O)c1c(-c2ccc(NC(=O)Nc3cc(C(F)(F)F)ccn3)cc2)c2c(N)ncnn2c1CN1CCOCC1 | 10 to 100 nM |

Task item: Return IC50 for the following molecule: Nc1ncnn2c(CN3CCOCC3)c(C(O)C3CC3)c(-c3ccc(NC(=O)Nc4cc(C(F)(F)F)ccc4F)cc3)c12 (stereo not drawn)
Reply: 10 to 100 nM

Task item: Return IC50 for the following molecule: `Cc1cc(-c2c(C)c(CN3CCCOCC3)n3ncnc(N)c23)ccc1NC(=O)Nc1cc(C(F)(F)F)ccc1F`
Reply: < 10 nM

Task item: Return IC50 for the following molecule: `Nc1ncnn2c(CN3CCOCC3)c(CO)c(-c3ccc(NC(=O)Nc4cc(C(F)(F)F)ccn4)cc3)c12`
Reply: 10 to 100 nM

Task item: Return IC50 for the following molecule: `CN1CCN(Cc2c(CC#N)c(-c3ccc(NC(=O)Nc4cc(C(F)(F)F)ccc4F)cc3)c3c(N)ncnn23)CC1`
Reply: 10 to 100 nM

Task item: Return IC50 for the following molecule: COCc1c(-c2ccc(NC(=O)Nc3cc(C(F)(F)F)ccc3F)c(F)c2)c2c(N)ncnn2c1CN1CCOC(CO)C1 (stereo not drawn)
Reply: 10 to 100 nM
